System: Aβ42 produced and secreted into the medium of human neuroblastoma SKNBE2 cells
ASSAY TEXT: Cellular αlisa assay in SKNBE2 cells, Aβ42
Type: cell-based
EXPERIMENTAL PARAMETERS: Homo sapiens, SKNBE2, 18 h, SKNBE2 cells expressing hAPP695, incubated for 18 hours; read-out: Cellular αlisa assay in SKNBE2 cells Aβ42 pIC50 (converted)
METRIC: IC50 (nM)

Example molecules with recorded IC50:
> print(dat)
                                   molecule  metric  endpoint.result
1  COc1cncc(-c2cccc(C3(C)Cn4ccnc4C(N)=N3)c2)c1 (racemic)    IC50             2140
2  C[C@@]1(c2cc(NC(=O)c3ncc(Cl)cc3F)ccc2F)Cn2ccnc2C(N)=N1    IC50             17.4

I. CC1(c2cc(-c3cncnc3)ccc2F)Cn2ccnc2C(N)=N1 (single isomer, unassigned)
II. C[C@@]1(c2cc(NC(=O)c3ccc(C#N)cn3)ccc2F)Cn2cc(C(F)F)nc2C(N)=N1
Prompt: Would you let me know which has the greater IC50 value, I or II ? Give the label under which the chosen entry appears.
Response: I
(I: 2750 nM, II: 8.51 nM)
